Below is a list of entries, each paired with its recorded Binding affinity (RU) value.
target: acetylcholine receptor; experiment: SPR, AchR immobilised on CM5 chip, peptide 10 uM
The figure you give is taken to be in RU; do not add the unit.

Here's what some known entries look like.
Measured Binding affinity (RU) of KIPHRR [6mer-2-712] : 29

The binder listed as RKEMIK [6mer-1-976] shows Binding affinity (RU) equal to 40

// recorded Binding affinity (RU) for RTHNKR [6mer-2-795] : 16

The binder listed as RRDHVK [6mer-1-973] has a reported Binding affinity (RU) of 25

Lab note: measured Binding affinity (RU) of KKAKGR [6mer-1-954] was 41

New cases:
The binder RNMERR [6mer-2-682] showed Binding affinity (RU) equal to 33

Entry source: patent US20250011363A1
